Where these numbers come from: patent US20260250371A1

In this section we review reported Kd values for a set of binders.
- Study Target: T1, cynomolgus monkey (Macaca fascicularis) FGF23 (R179Q) (cynomolgus monkey (Macaca fascicularis), UniProt Q9GZV9 25-251 (human entry), limits assumed)
- T1 construct: also called cynoFGF23; cynoFGF23(R179Q)
- T1 chain: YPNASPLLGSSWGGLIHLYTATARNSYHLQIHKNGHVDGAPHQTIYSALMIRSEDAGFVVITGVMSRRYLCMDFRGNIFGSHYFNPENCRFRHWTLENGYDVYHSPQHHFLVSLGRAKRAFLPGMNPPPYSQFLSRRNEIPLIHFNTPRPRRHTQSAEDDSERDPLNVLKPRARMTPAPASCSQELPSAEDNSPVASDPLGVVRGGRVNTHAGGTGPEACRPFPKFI
- Measurement Description: SPR, antibody captured on hIgG chip, cynoFGF23(R179Q) analyte, single cycle kinetics
Parameter: Kd (nM)

| Binder | Result |
| --- | --- |
| UGX201 (antibody, human IgG1, kappa, V domains shown, also called HC:S59E, LC:N92F; S59E/N92F) VH: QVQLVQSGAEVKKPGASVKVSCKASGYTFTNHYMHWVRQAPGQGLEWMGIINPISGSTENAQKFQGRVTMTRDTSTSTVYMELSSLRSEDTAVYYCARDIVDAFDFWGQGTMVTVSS VL: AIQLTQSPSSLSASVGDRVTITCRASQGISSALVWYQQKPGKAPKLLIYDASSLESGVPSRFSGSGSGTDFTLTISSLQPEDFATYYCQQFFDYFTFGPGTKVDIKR | 0.0101 |
| UGX182 (antibody, human IgG1, kappa, V domains shown, also called HC:S59D, HC:V101I; S59D/V101I) VH: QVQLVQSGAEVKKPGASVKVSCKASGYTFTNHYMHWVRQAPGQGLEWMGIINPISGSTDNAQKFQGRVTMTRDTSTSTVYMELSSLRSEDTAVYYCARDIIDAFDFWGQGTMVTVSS VL: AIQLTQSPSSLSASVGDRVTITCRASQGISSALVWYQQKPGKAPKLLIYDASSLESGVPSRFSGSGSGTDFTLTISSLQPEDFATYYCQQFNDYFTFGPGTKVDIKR | 0.0163 |
| UGX156 (antibody, human IgG1, kappa, V domains shown, also called HC:I54F; I54F) VH: QVQLVQSGAEVKKPGASVKVSCKASGYTFTNHYMHWVRQAPGQGLEWMGIINPFSGSTSNAQKFQGRVTMTRDTSTSTVYMELSSLRSEDTAVYYCARDIVDAFDFWGQGTMVTVSS VL: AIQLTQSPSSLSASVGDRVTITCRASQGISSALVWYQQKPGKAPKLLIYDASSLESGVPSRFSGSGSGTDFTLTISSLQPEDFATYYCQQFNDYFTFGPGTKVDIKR | 0.00415 |
